Entry source: PubChem BioAssay (NCI)

Test: NCI Yeast Anticancer Drug Screen. Data for the sgs1 mgt1 strain (AID 161)
Settings: S. cerevisiae sgs1 mgt1 strain, at 50.0 µM (retest, dose inferred, filed as 5.0)
About 79,000 compounds went through this panel and 15% of them were active in at least one assay; those are over-represented in the sample as a whole. The source made the active and inactive calls. Cut-off read from the data, not from the text of the source: active = growth inhibition above about 70%; inactive = the rest.
Use one of these outcomes when replying: T = active, F = inactive

Worked set:
# compound, discrete.label
measured = [
    ("CCCCCCCCCCCCCCCC(=O)NCC[N+](CC)(CC)Cc1ccc(C[N+](CC)(CC)CCNC(=O)CCCCCCCCCCCCCCC)cc1", "T"),
    ("Cc1ccc(Nc2nc(C)c(C(/C=C/c3ccc4c(c3)OCO4)=N/Nc3ccc([N+](=O)[O-])cc3[N+](=O)[O-])s2)c([N+](=O)[O-])c1", "F"),
    ("CN(C)CCNC(=O)C(c1ccccc1)c1ccccc1", "F"),
]

Dear colleague, could you share the recorded outcome for O=C(OC1C=C=CS(=O)(=O)CC#C/C=C\1)c1cnc2ccccc2n1 (centres undefined) when you have a moment?
T

Assay outcome for Nc1ccc2c(SCCCCCCCCSc3c4ccccc4nc4cc(N)ccc34)c3ccccc3nc2c1 : what was it?
T

# fetch the recorded call for O=C(Nc1ccccc1[N+](=O)[O-])/C(=N/Nc1cccc(Cl)c1)c1c(O)c2ccccc2oc1=O here
F

// outcome(item) with item = CCCC/C(=N/Nc1ccc([N+](=O)[O-])cc1)C(=O)O
T

Hi team, can someone confirm the assay call for CC(C)/C=C1\CCOC1=O ?
F

Outcome logged for CC1=C(C(=O)Nc2ccccc2)C(c2cc(Cl)cc(Cl)c2)C(C(=O)Nc2ccccc2)=C(C)N1 in this assay:
F

Hi, do you know how O=C(O)c1cc2ccc(Cl)cc2c2c1C(=O)c1cc(Cl)ccc1-2 came out in this test?
F

Recorded test outcome, item Cc1cc(N2C(=O)CCSC2=S)ccc1Cl
F

Recorded test outcome, item COc1cc2c(cc1OC)C(C)N(C)c1c-2c(OC(C)=O)cc2cc(OC)c(OC)cc12 (centres undefined)
F

Tell me the recorded outcome of this test for CCOc1cc2c(cc1Cc1c(OC)cc(OC)cc1OC)OCO2 .
F
